- Test system: mRNA expressed from the genes (A) to (D) in rat liver
- EXPERIMENT_DESCRIPTION: Behavior of genes (mRNA expression level, oligo-DNA microarray) in rat liver after 28-day oral administration
- Format: in vivo
- ASSAY_CONDITIONS: Gene No. 1494, Rn.1430, group (B)
VALUE_TYPE: Behavior of gene caused by administration of chemical substance

>>> experimental_value("CC(=O)Nc1cccc2c1-c1ccccc1C2")
"−"
>>> experimental_value("C=CCc1ccc(OC)c(OC)c1")
"−"
>>> experimental_value("O=[N+]([O-])c1ccc2ccc3cccc4ccc1c2c34")
"−"
>>> experimental_value("O=CCCCC=O")
"−"
>>> experimental_value("Nc1ccc(N=Nc2ccccc2)cc1")
"−"

// next entry
Endpoint output: Behavior of gene caused by administration of chemical substance of `Cc1ccccc1[N+](=O)[O-]` . Value? +

* * *

- System: mRNA expressed from the genes (A) to (D) in rat liver
- EXPERIMENT_DESCRIPTION: Behavior of genes (mRNA expression level, oligo-DNA microarray) in rat liver after 28-day oral administration
- Type: in vivo
- ASSAY_CONDITIONS: Gene No. 725, Rn.108075, group (C)
VALUE_TYPE: Behavior of gene caused by administration of chemical substance

Below are worked cases with known answers.
>>> experimental_value("Cc1ccccc1[N+](=O)[O-]")
"+"
>>> experimental_value("C=CCc1ccc(OC)c(OC)c1")
"−"
>>> experimental_value("O=CCCCC=O")
"−"
>>> experimental_value("O=[N+]([O-])c1ccc2ccc3cccc4ccc1c2c34")
"−"
>>> experimental_value("Nc1ccc(N=Nc2ccccc2)cc1")
"−"

// next entry
Endpoint output: Behavior of gene caused by administration of chemical substance of `CC(=O)Nc1cccc2c1-c1ccccc1C2` . Value? −

* * *

- System: mRNA expressed from the genes (A) to (D) in rat liver
- EXPERIMENT_DESCRIPTION: Behavior of genes (mRNA expression level, oligo-DNA microarray) in rat liver after 28-day oral administration
- Format: in vivo
- ASSAY_CONDITIONS: gene group (C); Unigene No. Rn.123063; mRNA vs vehicle control group
VALUE_TYPE: Behavior of gene caused by administration of chemical substance, Gene No. 6303

>>> experimental_value("O=C(O)C(Cl)(Cl)Cl")
"−"
>>> experimental_value("O=C(O)C1C(C(=O)O)C2(Cl)C(Cl)=C(Cl)C1(Cl)C2(Cl)Cl (stereo not shown)")
"−"
>>> experimental_value("C#C[C@]1(O)CC[C@H]2[C@@H]3CCc4cc(O)ccc4[C@H]3CC[C@@]21C")
"+"
>>> experimental_value("C=CCc1ccc2c(c1)OCO2")
"+"
>>> experimental_value("c1ccc2cc3c(ccc4ccccc43)cc2c1 [TS046, Benz[a]anthracene]")
"−"

Endpoint output: Behavior of gene caused by administration of chemical substance, Gene No. 6303 of `ClC(Cl)=C(Cl)Cl` . Value? −

Endpoint output: Behavior of gene caused by administration of chemical substance, Gene No. 6303 of `Clc1c(Cl)c(Cl)c(Cl)c(Cl)c1Cl` . Value? −

Endpoint output: Behavior of gene caused by administration of chemical substance, Gene No. 6303 of `Cn1c(N)nc2ncc(-c3ccccc3)cc21` . Value? −

* * *

- System: mRNA expressed from the genes (A) to (D) in rat liver
- EXPERIMENT_DESCRIPTION: Behavior of genes (mRNA expression level, oligo-DNA microarray) in rat liver after 28-day oral administration
- Type: in vivo
- ASSAY_CONDITIONS: rat, in vivo
- Description: A test solution was prepared by dissolving each of the carcinogens and the non-carcinogens shown in Tables 2 to 6 in the corresponding solvent shown in Tables 2 to 6. […] The case where the expression level of mRNA in the carcinogen administration group or the non-carcinogen administration group is 1.5 times or more or 1/1.5 or less of the expression level of the corresponding mRNA expressed in the control group was determined to be significant. […]
VALUE_TYPE: Behavior of gene caused by administration of chemical substance, Gene No. 1494

Below are worked cases with known answers.
>>> experimental_value("CC(=O)Nc1ccc(C(=O)CCl)cc1 [TS072, 4-(Chloroacetyl)acetanilide]")
"+"
>>> experimental_value("Cc1c(C)c2c(c(C)c1O)CC[C@@](C)(CCC[C@H](C)CCC[C@H](C)CCCC(C)C)O2")
"−"
>>> experimental_value("O=C1N=C([O-])NC1(c1ccccc1)c1ccccc1.[Na+]")
"+"
>>> experimental_value("Cl[C@H]1[C@H](Cl)[C@@H](Cl)[C@@H](Cl)[C@H](Cl)[C@H]1Cl")
"−"
>>> experimental_value("ClC(Cl)Cl [TS056, Chloroform]")
"+"

Endpoint output: Behavior of gene caused by administration of chemical substance, Gene No. 1494 of `Cl[C@H]1[C@H](Cl)[C@H](Cl)[C@@H](Cl)[C@H](Cl)[C@H]1Cl` . Value? +

Endpoint output: Behavior of gene caused by administration of chemical substance, Gene No. 1494 of `OCCCl` . Value? −

Endpoint output: Behavior of gene caused by administration of chemical substance, Gene No. 1494 of Oc1cccc2cccnc12 [TS007, 8-Hydroxyquinoline] . Value? −

* * *

- Test system: mRNA expressed from the genes (A) to (D) in rat liver
- EXPERIMENT_DESCRIPTION: Behavior of genes (mRNA expression level, oligo-DNA microarray) in rat liver after 28-day oral administration
- Type: in vivo
- ASSAY_CONDITIONS: rat, in vivo
VALUE_TYPE: Behavior of gene caused by administration of chemical substance, Gene No. 1163

>>> experimental_value("O=C1N=C([O-])NC1(c1ccccc1)c1ccccc1.[Na+]")
"−"
>>> experimental_value("ClC(Cl)Cl [TS056, Chloroform]")
"+"
>>> experimental_value("Oc1cccc2cccnc12 [TS007, 8-Hydroxyquinoline]")
"−"
>>> experimental_value("OCCCl")
"−"

* * *

- Tested on: mRNA expressed from the genes (A) to (D) in rat liver
- EXPERIMENT_DESCRIPTION: Behavior of genes (mRNA expression level, oligo-DNA microarray) in rat liver after 28-day oral administration
- Format: in vivo
- ASSAY_CONDITIONS: Gene No. 1163, Rn.11766, group (C)
VALUE_TYPE: Behavior of gene caused by administration of chemical substance

Below are worked cases with known answers.
>>> experimental_value("C=CCc1ccc(OC)c(OC)c1")
"−"
>>> experimental_value("CC(=O)Nc1cccc2c1-c1ccccc1C2")
"+"
>>> experimental_value("O=[N+]([O-])c1ccc2ccc3cccc4ccc1c2c34")
"−"
>>> experimental_value("Cc1ccccc1[N+](=O)[O-]")
"−"
>>> experimental_value("Nc1ccc(N=Nc2ccccc2)cc1")
"+"

// next entry
Entry `O=CCCCC=O` , system mRNA expressed from the genes (A) to (D) in rat liver: what Behavior of gene caused by administration of chemical substance was measured? −

* * *

- Test system: mRNA expressed from the genes (A) to (D) in rat liver
- EXPERIMENT_DESCRIPTION: Behavior of genes (mRNA expression level, oligo-DNA microarray) in rat liver after 28-day oral administration
- Format: in vivo
- ASSAY_CONDITIONS: rat, in vivo
VALUE_TYPE: Behavior of gene caused by administration of chemical substance, Gene No. 3929

>>> experimental_value("Cc1c(C)c2c(c(C)c1O)CC[C@@](C)(CCC[C@H](C)CCC[C@H](C)CCCC(C)C)O2")
"−"
>>> experimental_value("Oc1cccc2cccnc12 [TS007, 8-Hydroxyquinoline]")
"−"
>>> experimental_value("O=C1N=C([O-])NC1(c1ccccc1)c1ccccc1.[Na+]")
"+"
>>> experimental_value("Cl[C@H]1[C@H](Cl)[C@H](Cl)[C@@H](Cl)[C@H](Cl)[C@H]1Cl")
"−"

* * *

- Test system: mRNA expressed from the genes (A) to (D) in rat liver
- EXPERIMENT_DESCRIPTION: Behavior of genes (mRNA expression level, oligo-DNA microarray) in rat liver after 28-day oral administration
- Type: in vivo
- ASSAY_CONDITIONS: gene group (D); Unigene No. Rn.9939; mRNA vs vehicle control group
VALUE_TYPE: Behavior of gene caused by administration of chemical substance, Gene No. 5726

>>> experimental_value("C#C[C@]1(O)CC[C@H]2[C@@H]3CCc4cc(O)ccc4[C@H]3CC[C@@]21C")
"−"
>>> experimental_value("Clc1ccc(Cl)cc1")
"+"
>>> experimental_value("ClC(Cl)=C(Cl)Cl")
"−"
>>> experimental_value("C=CCc1ccc2c(c1)OCO2")
"−"
>>> experimental_value("ClC(Cl)C(Cl)(Cl)Cl")
"+"

Endpoint output: Behavior of gene caused by administration of chemical substance, Gene No. 5726 of c1ccc2c(c1)cc1ccc3cccc4ccc2c1c34 [TS063, Benzo[a]pyrene] . Value? −

Endpoint output: Behavior of gene caused by administration of chemical substance, Gene No. 5726 of CCSCCC(N)C(=O)O (racemic) . Value? −

Endpoint output: Behavior of gene caused by administration of chemical substance, Gene No. 5726 of O=C(O)C1C(C(=O)O)C2(Cl)C(Cl)=C(Cl)C1(Cl)C2(Cl)Cl (stereo not shown) . Value? −
